Several reports have described IC50 for Dihydroorotate dehydrogenase (quinone), mitochondrial (Homo sapiens); a selection of those results is presented here.
# output: number + unit

Problem: Please supply the value of reported IC50 for the item O=C(O)c1cc(C2CC2)ccc1Nc1cnc(-c2c(F)cc(O)cc2F)nc1
Solution: 0.057 µM

Problem: Please supply the value of reported IC50 for the item Cc1ccc(Nc2cnc(-c3ccncc3F)c(C)c2)c(C(=O)O)c1
Solution: 0.037 µM

Problem: Please supply the value of reported IC50 for the item Cc1cc(C(=O)O)c2nc(-c3ccc(-c4ccc(Oc5ccccc5C#N)cc4)cc3)[nH]c2c1
Solution: 2.03 µM

Problem: Please supply the value of reported IC50 for the item C=C(C)[C@@H]1CN(c2c(C)cnc(OC)c2Cl)C(=O)c2cc(F)c(-n3nc(CO)n(CC)c3=O)cc21 (single isomer, unassigned; atropisomer 1)
Solution: 0.002 µM
